Target: human α7 nAChR stably expressed in a HEK cell line (with human RIC-3) (Homo sapiens)
Construct: PrecisION hnAChR α7/RIC-3
Assay: Automated patch-clamp electrophysiology functional assay (Assay A), IonFlux HT, whole-cell population patch
Format: cell-based
Details: electrophysiology EC50, HEK cells expressing human α7/RIC-3, 40 μM acetylcholine, holding potential −60 mV, room temperature; read-out: α7 nAChR EC50
Each item that follows carries a reported EC50.
Please make sure the unit comes right after the number.

Study these solved cases before continuing.
[[record]]
compound = "CC1(C)[C@@H](c2ccc(S(N)(=O)=O)cc2)[C@@H]1c1nc(C2CCCCC2)no1 [Example D3]"
measured_attribute = "EC50"
result_value = "150 nM"

[[record]]
compound = "COc1ccc(Cl)cc1-c1noc([C@@H]2[C@@H](c3ccc(S(N)(=O)=O)cc3)C2(C)C)n1 [Example A1]"
measured_attribute = "EC50"
result_value = "2900 nM"

[[record]]
compound = "CC1(C)[C@@H](c2ccc(S(N)(=O)=O)cc2)[C@@H]1c1noc(C2CCC(O)CC2)n1 (stereo partly shown) [Example I29]"
measured_attribute = "EC50"
result_value = "6800 nM"

[[record]]
compound = "CC1(C)[C@@H](c2ccc(S(N)(=O)=O)cc2)[C@@H]1c1nc(C2(C(F)(F)F)CC2)no1 [Example D33]"
measured_attribute = "EC50"
result_value = "210 nM"

[[record]]
compound = "CC1(C)C(c2ccc(S(N)(=O)=O)cc2)C1c1noc(C2CC3CN(C4CCCC4)C(=O)C3C2)n1 (stereo not shown) [Example I24]"
measured_attribute = "EC50"
result_value = "4400 nM"


[in] Recorded EC50 for NS(=O)(=O)c1ccc([C@@H]2C[C@H]2c2nc(-c3ccc(F)cc3F)no2)cc1 [Example C13] , please?
[out] 160 nM

[in] GET /values?readout=EC50&item= NS(=O)(=O)c1ccc(C2CC2c2nc(-c3cccc(F)c3)ns2)cc1 (single isomer, unassigned) [Example M4]
[out] 210 nM

----------
Target: human α7 nAChR stably expressed in a HEK cell line (with human RIC-3) (Homo sapiens, UniProt P36544)
Construct: PrecisION hnAChR α7/RIC-3
Sequence (P36544 23-502): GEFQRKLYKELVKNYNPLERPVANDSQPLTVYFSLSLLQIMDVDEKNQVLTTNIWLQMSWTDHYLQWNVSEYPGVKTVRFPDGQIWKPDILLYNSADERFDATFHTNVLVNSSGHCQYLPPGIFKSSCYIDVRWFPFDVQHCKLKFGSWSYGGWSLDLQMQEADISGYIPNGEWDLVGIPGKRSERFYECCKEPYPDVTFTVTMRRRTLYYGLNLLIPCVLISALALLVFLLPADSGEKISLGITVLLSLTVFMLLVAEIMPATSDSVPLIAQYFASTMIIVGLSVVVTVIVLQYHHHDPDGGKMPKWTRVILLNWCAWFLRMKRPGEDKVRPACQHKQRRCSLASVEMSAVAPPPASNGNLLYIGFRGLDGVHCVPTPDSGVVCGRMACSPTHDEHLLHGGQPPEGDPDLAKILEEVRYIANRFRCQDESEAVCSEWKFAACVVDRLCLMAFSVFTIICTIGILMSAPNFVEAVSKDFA
Assay: Automated patch-clamp electrophysiology functional assay (Assay A), IonFlux HT, whole-cell population patch
Format: cell-based
Conditions: automated patch-clamp electrophysiology functional assay (Assay A); potency class by EC50; read-out: α7 nAChR Potency
pEC50: −log10 of the molar value.
MEASURED_ATTRIBUTE: pEC50

[in] Which pEC50 is listed for CC1(C)[C@@H](c2ccc(S(N)(=O)=O)cc2)[C@@H]1c1nc(-c2ccccn2)no1 ?
[out] 4.30 to 5.30

[in] Using the record for Cc1ccccc1-c1noc([C@@H]2C[C@H]2c2ccc(S(N)(=O)=O)cc2)n1 , report its pEC50.
[out] 6.30 to 7.00

[in] Entry CC1(C)[C@@H](c2ccc(S(N)(=O)=O)cc2)[C@@H]1c1noc(-c2ccc(OCCF)nc2)n1 has what pEC50?
[out] 5.30 to 6.30

[in] Look up pEC50: NS(=O)(=O)c1ccc([C@@H]2C[C@H]2c2noc(N3CCCCC3)n2)cc1
[out] 6.30 to 7.00

[in] Look up pEC50: CC1(C)[C@H](c2ccc(S(N)(=O)=O)cc2)[C@H]1c1cn(-c2cccc(F)c2)nn1
[out] 5.30 to 6.30

[in] I'd like to know its pEC50. The compound in question is CC1(C)[C@@H](c2ccc(S(N)(=O)=O)cc2)[C@@H]1c1nc(-c2cncc(C(F)(F)F)c2)no1
[out] 5.30 to 6.30

[in] Item NS(=O)(=O)c1ccc([C@H]2C[C@@H]2c2nc(-c3cncc(F)c3)no2)cc1 has what recorded pEC50?
[out] 4.30 to 5.30

[in] Could you tell me which pEC50 is on file for NS(=O)(=O)c1ccc(C2C(c3nc(C4CCCC4)no3)C2(Cl)Cl)cc1 (racemic) ?
[out] 6.30 to 7.00
